Experiment: Solubility after 30 mins by turbidimetric solubility assay
Type: physicochemical
RECORDED_METRIC: solubility kinetic at 0.5 h

Past entries and their recorded results:
| INPUT_SMILES | solubility kinetic at 0.5 h |
| --- | --- |
| COc1cc(OC)c(C(=O)Nc2ccc(-c3cccnc3)cc2F)cc1OC | 30 µg/mL |
| COc1cc(OC)c(C(=O)Nc2ccc(-c3cccnc3)cc2F)c(OC)c1 | 60 µg/mL |
| COc1ccc(C(=O)Nc2ccc(-c3cccnc3)cc2F)c(OC)c1OC | 45 µg/mL |
| COc1cc(C(=O)Nc2ccc(-c3cccnc3)cc2F)cc(OC)c1OC | 25 µg/mL |
| COc1ccc(C(=O)Nc2ccc(-c3cccnc3)cc2F)cc1 | 22 µg/mL |

Could you now look at the following compound, please?
Tell me the measured solubility kinetic at 0.5 h of COc1ccc(C(=O)Nc2ccc(-c3cccnc3)cc2F)cc1OC , please.
18 µg/mL
